tested on: PC-3 prostate; assay: NCI-60 one-dose screen, 48 h (100 = growth as untreated, 0 = no growth, -100 = all killed); details: 10 µM unless noted
About 83,000 compounds went through this panel and 20% of them were active in at least one assay; those are over-represented in the sample as a whole.
Catalogue of molecules with associated growth
assay endpoint: growth (%)

In [3]: df
Out[3]:
                                    molecule  subject_of_test  assay_endpoint  data_value
 0        CC1(C)OC(=O)C(=Cc2ccccc2Br)C(=O)O1    PC-3 prostate          growth        92.5
 1  O=C1C2C3C=CC(O3)C2C(=O)N1Nc1ccccc1 (configuration not stated)    PC-3 prostate          growth        97.5
 2  Cc1c(C(N)=O)sc2c1c(=O)n(Cc1ccccc1)c1nnc(SCC(=O)Nc3ccc(Cl)cc3)n21    PC-3 prostate          growth        38.1
 3  COc1ccc2c3c(c(OCCCN(C)C)nc2c1)-c1ccc(Cl)cc1C3=O    PC-3 prostate          growth       -19.5
 4  Cc1cc(C)c(OC(=O)CSc2nc3ccccc3c(=O)n2CCc2ccccc2)cc1C    PC-3 prostate          growth          66
 5  Cc1ccc(NC(=O)Nc2ccc(-c3cccnc3)cc2N2CCC(CO)CC2)cc1    PC-3 prostate          growth        51.8
 6       O=C1C(=O)c2ccc(Br)cc2-c2cc(Br)ccc21    PC-3 prostate          growth        83.7
 7                    OCCOc1c(Cl)cc(Cl)cc1Cl    PC-3 prostate          growth         101
 8     CCCCOc1ccc(C(C)(C)c2ccc(OCCCC)cc2)cc1    PC-3 prostate          growth        99.9
 9  CC(CCC(=O)O)(NC(=O)c1ccc([N+](=O)[O-])cc1)C(=O)O (configuration not stated)    PC-3 prostate          growth        98.4
10  O=C1Nc2ccccc2C12Nc1cc(Cl)ccc1S2 (configuration not stated)    PC-3 prostate          growth        44.5
11  N=c1ccn2c(n1)O[C@@H]1[C@@H](O)[C@H](CO)O[C@@H]12    PC-3 prostate          growth        57.9

====

system: MOLT-4 leukemia; assay: NCI-60 one-dose screen, 48 h (100 = growth as untreated, 0 = no growth, -100 = all killed); settings: 10 µM unless noted
The panel holds about 83,000 compounds, 20% with a hit somewhere; the sample as a whole holds those more often.
Parameter: growth. Scope: all listed entries.

compound	growth [%]
O=c1[nH]c(=O)n(C2CC(O)C(CO)O2)cc1C(F)(F)F (stereo not drawn)	31.8
CC(c1cc(Cl)ccc1O)c1cc(Cl)ccc1O	52.1
COc1cc(C2NC(c3ccc(Cl)cc3)C(C)/C(=N/NC(N)=S)C2C)cc(OC)c1OC (stereo not drawn)	70.7
COc1cc(NC(=O)c2cc3ccccc3cc2O)c(OC)cc1Cl	-18.8
CC(C)c1nc(N(C)S(C)(=O)=O)nc(-c2ccc(F)cc2)c1/C=C/[C@@H](O)C[C@@H](O)CC(=O)O	109
CCOC(=O)c1ccccc1OC(=O)NNc1ccccc1	17.9
COc1ccc(-c2cnnn2-c2cc(OC)c3c(c2)OCO3)cc1	4.11
CC(=O)NC1(C(=O)O)CCCC1	109
O=c1c(O)cccn1CCCNCCCN(CCCn1cccc(O)c1=O)CCCn1cccc(O)c1=O	160
COc1cccc(C2C(C#N)=C(N)Oc3cc(OC)ccc32)c1 (stereo not drawn)	1.42
O=C(CSc1nnc(Nc2ccccc2)s1)NCCc1ccc(F)cc1	103
Nc1ccc(S(=O)(=O)Nc2ncccn2)cc1	106
CNc1ccc(CSc2ccc(Cl)cc2)cc1	61.5
CC[C@]1(O)CC2CN(CCc3c([nH]c4ccccc34)[C@@](C(=O)OC)(c3cc4c(cc3OC)N(C)[C@H]3[C@@](O)(C(=O)OC)[C@H](OC(C)=O)[C@]5(CC)C=CCN6CC[C@]43[C@@H]65)C2)C1 (stereo partly drawn)	16.4
Fc1ccc(-c2nc(Nc3ccc(-c4nc5ccccc5[nH]4)cc3)nc(N3CCOCC3)n2)cc1	-91.6
CC(=O)Nc1ccc2c(c1)Cc1c(F)c(F)c(F)c(F)c1-2	99.4
Cc1ccc(C(C)C)cc1NC(=O)Nc1ccc([N+](=O)[O-])cc1	-23
O=C1C[C@@H]2/C(=C(O)\C=C\c3ccccc3)C(=O)C=C[C@@H]2O1	6.97
O=C(/C=C/c1cccnc1)/C=C/c1cccnc1	-22.8
CC1=NN(c2ccccc2Cl)C(=O)/C1=C\c1cn(S(=O)(=O)c2ccc(C)cc2)c2ccccc12	173
COc1cc2c(c(OC)c1OC)-c1ccc(NN(C(=O)c3ccccc3)C(=O)c3ccccc3)c(=O)cc1[C@@H](NC(C)=O)CC2 (tested in a mixture with another compound)	22.8
Cc1cc(NCCCNc2ccnc3cc(Cl)ccc23)nc(N2CCN(C)CC2)n1	21.2
c1coc([C@@H]2C[C@@H]3Cc4ccc5ccccc5c4N2O3)c1	73.7
CCCCCCOc1ccc(/C=N/NC(N)=S)cc1	7.23
CCOC(=O)c1c2c(c(C)n1Cc1ccccc1)-c1nc(N)ncc1CC2	95.7
O=C(CN1CCCCC1)Sc1nnc2sc3ccccc3n12	98.1
COc1ccc(-c2c3c(nn2-c2ccc(N)cc2)CCc2cnoc2-3)cc1OC	86.4
OC(CCC(O)(c1ccccc1)c1ccccc1)(c1ccccc1)c1ccccc1	18.5
CCC(C)CC(CC)NCCN1CCN(C(CC)CC(C)CC)C1=S (stereo not drawn)	38.5
CN=C(NC)N/N=C(C)\C=N\NC(=NC)NC	101
CCN(CC)CCCNCCCNc1cc(OC)cc2cccnc12	75.6
NC(=O)c1ccccc1NC(=O)c1ccccc1Cl	63.7
CCOc1nc(-c2ccccc2)cc2c(O)c(C(=O)n3nc(C)cc3C)[nH]c(=O)c12	99
